Target: T1, Human CD137 ECD (human)
T1 construct: entry includes C-terminal His-tag and biotin acceptor peptide; also called human CD137 extracellular domain; 4-1BB
T1 sequence (chain, as listed by the source limits assumed): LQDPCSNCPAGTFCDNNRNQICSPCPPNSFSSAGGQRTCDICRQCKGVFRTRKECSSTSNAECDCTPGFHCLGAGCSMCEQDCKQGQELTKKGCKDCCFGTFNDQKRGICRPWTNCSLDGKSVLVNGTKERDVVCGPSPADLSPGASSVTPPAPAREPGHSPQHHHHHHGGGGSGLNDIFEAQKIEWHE
Experiment: Biacore SPR, vs parent H183/L072

{"BINDER": "H183/L072 VL P56K (antibody, name in Kabat numbering, V domains shown, Dual-Ig) VH: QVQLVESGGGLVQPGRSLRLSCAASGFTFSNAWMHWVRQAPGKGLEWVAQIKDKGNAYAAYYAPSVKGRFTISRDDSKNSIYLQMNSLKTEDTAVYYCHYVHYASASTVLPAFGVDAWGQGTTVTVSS VL: DIVMTQSPLSLPVTPGEPASISCQASQELVHMNRNTYLHWYQQKPGQAPRLLIYKVSNRFKGVPDRFSGSGSGTDFTLKISRVEAEDVGVYYCAQGTSVPFTFGQGTKLEIK", "UNIT OF MEASUREMENT": "fold", "fold change of affinity": 0}
{"BINDER": "H183/L072 VL Q27T (antibody, name in Kabat numbering, V domains shown, Dual-Ig) VH: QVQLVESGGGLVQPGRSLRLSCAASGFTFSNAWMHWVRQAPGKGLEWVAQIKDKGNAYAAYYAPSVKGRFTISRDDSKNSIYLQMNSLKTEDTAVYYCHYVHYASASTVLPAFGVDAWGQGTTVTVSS VL: DIVMTQSPLSLPVTPGEPASISCQASTELVHMNRNTYLHWYQQKPGQAPRLLIYKVSNRFPGVPDRFSGSGSGTDFTLKISRVEAEDVGVYYCAQGTSVPFTFGQGTKLEIK", "UNIT OF MEASUREMENT": "fold", "fold change of affinity": 0.9}
{"BINDER": "H183/L072 VL M27eD (antibody, name in Kabat numbering, V domains shown, Dual-Ig) VH: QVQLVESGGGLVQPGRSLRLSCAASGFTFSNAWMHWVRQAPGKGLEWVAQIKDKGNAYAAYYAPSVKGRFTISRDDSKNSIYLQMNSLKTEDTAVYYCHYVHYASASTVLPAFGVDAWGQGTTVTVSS VL: DIVMTQSPLSLPVTPGEPASISCQASQELVHDNRNTYLHWYQQKPGQAPRLLIYKVSNRFPGVPDRFSGSGSGTDFTLKISRVEAEDVGVYYCAQGTSVPFTFGQGTKLEIK", "UNIT OF MEASUREMENT": "fold", "fold change of affinity": 0.7}
{"BINDER": "H183/L072 VL T92R (antibody, name in Kabat numbering, V domains shown, Dual-Ig) VH: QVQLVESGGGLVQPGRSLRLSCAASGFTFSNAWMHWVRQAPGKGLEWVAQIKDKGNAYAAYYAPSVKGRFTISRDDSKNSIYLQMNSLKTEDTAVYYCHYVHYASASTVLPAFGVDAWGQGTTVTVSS VL: DIVMTQSPLSLPVTPGEPASISCQASQELVHMNRNTYLHWYQQKPGQAPRLLIYKVSNRFPGVPDRFSGSGSGTDFTLKISRVEAEDVGVYYCAQGRSVPFTFGQGTKLEIK", "UNIT OF MEASUREMENT": "fold", "fold change of affinity": 0}
{"BINDER": "H183/L072 VL L27bA (antibody, name in Kabat numbering, V domains shown, Dual-Ig) VH: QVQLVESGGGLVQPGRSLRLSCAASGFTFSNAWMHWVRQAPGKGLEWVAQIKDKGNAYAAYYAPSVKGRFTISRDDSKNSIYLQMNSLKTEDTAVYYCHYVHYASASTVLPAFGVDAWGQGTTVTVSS VL: DIVMTQSPLSLPVTPGEPASISCQASQEAVHMNRNTYLHWYQQKPGQAPRLLIYKVSNRFPGVPDRFSGSGSGTDFTLKISRVEAEDVGVYYCAQGTSVPFTFGQGTKLEIK", "UNIT OF MEASUREMENT": "fold", "fold change of affinity": 0.4}
{"BINDER": "H183/L072 VL A89G (antibody, name in Kabat numbering, V domains shown, Dual-Ig) VH: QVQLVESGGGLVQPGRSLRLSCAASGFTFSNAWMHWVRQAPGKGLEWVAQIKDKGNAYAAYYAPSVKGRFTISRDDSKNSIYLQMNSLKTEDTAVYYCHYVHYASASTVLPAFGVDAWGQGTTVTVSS VL: DIVMTQSPLSLPVTPGEPASISCQASQELVHMNRNTYLHWYQQKPGQAPRLLIYKVSNRFPGVPDRFSGSGSGTDFTLKISRVEAEDVGVYYCGQGTSVPFTFGQGTKLEIK", "UNIT OF MEASUREMENT": "fold", "fold change of affinity": 0.5}
{"BINDER": "H183/L072 VL P56D (antibody, name in Kabat numbering, V domains shown, Dual-Ig) VH: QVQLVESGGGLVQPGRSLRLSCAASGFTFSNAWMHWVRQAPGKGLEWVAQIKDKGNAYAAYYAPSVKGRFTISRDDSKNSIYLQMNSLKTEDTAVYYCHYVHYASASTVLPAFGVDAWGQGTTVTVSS VL: DIVMTQSPLSLPVTPGEPASISCQASQELVHMNRNTYLHWYQQKPGQAPRLLIYKVSNRFDGVPDRFSGSGSGTDFTLKISRVEAEDVGVYYCAQGTSVPFTFGQGTKLEIK", "UNIT OF MEASUREMENT": "fold", "fold change of affinity": 0.2}
{"BINDER": "H183/L072 VL S52N (antibody, name in Kabat numbering, V domains shown, Dual-Ig) VH: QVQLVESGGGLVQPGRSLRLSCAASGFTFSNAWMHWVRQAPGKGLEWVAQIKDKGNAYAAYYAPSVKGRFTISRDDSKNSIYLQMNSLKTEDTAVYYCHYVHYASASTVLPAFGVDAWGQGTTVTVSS VL: DIVMTQSPLSLPVTPGEPASISCQASQELVHMNRNTYLHWYQQKPGQAPRLLIYKVNNRFPGVPDRFSGSGSGTDFTLKISRVEAEDVGVYYCAQGTSVPFTFGQGTKLEIK", "UNIT OF MEASUREMENT": "fold", "fold change of affinity": 1}
{"BINDER": "H183/L072 VL S26Q (antibody, name in Kabat numbering, V domains shown, Dual-Ig) VH: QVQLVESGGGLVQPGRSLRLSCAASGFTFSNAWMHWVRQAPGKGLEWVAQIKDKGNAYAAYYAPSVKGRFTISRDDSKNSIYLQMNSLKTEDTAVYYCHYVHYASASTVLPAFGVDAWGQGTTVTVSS VL: DIVMTQSPLSLPVTPGEPASISCQAQQELVHMNRNTYLHWYQQKPGQAPRLLIYKVSNRFPGVPDRFSGSGSGTDFTLKISRVEAEDVGVYYCAQGTSVPFTFGQGTKLEIK", "UNIT OF MEASUREMENT": "fold", "fold change of affinity": 0.7}
{"BINDER": "H183/L072 VL M27eL (antibody, name in Kabat numbering, V domains shown, Dual-Ig) VH: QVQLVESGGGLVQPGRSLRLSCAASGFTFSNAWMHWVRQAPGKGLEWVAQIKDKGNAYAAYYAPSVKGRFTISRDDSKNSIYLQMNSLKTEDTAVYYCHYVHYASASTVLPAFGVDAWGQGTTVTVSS VL: DIVMTQSPLSLPVTPGEPASISCQASQELVHLNRNTYLHWYQQKPGQAPRLLIYKVSNRFPGVPDRFSGSGSGTDFTLKISRVEAEDVGVYYCAQGTSVPFTFGQGTKLEIK", "UNIT OF MEASUREMENT": "fold", "fold change of affinity": 0.8}
